- test.method.notes: Solubility in aqueous buffer
- Format: physicochemical
- details: PBS, pH 7.4, aqueous buffer
- Procedure: FIG. 3: Assessment of drug-likeness of a selected compound, compound 3.17. a) Chemicophysical properties of bumetanide and compound 3.17 by LC-MS analysis. b) Comparison between urinary volume of WT mice (C57Bl/6N) two hours after treatment with bumetanide (0.2 mg/kg) and compound 3.17 (0.2 mg/kg). c) Assessment of urinary volume of Ts65Dn mouse model of Down syndrome and WT littermates two hours after treatment with compound 3.17 (0.2 mg/kg). Number in parenthesis: number of analyzed animals. […]
reported.metric: solubility

stdin: Need solubility of CN(C)S(=O)(=O)c1cc(C(=O)O)ccc1NCCCCCCCC(F)(F)F [Compound 3.17] , thanks.
stdout: > 250 µM

---

- experimental.system: NKCC2 (Homo sapiens, UniProt Q13621)
- Construct: expressed in transfected cells; host or cells: HEK293
- Sequence (Q13621 1-1099): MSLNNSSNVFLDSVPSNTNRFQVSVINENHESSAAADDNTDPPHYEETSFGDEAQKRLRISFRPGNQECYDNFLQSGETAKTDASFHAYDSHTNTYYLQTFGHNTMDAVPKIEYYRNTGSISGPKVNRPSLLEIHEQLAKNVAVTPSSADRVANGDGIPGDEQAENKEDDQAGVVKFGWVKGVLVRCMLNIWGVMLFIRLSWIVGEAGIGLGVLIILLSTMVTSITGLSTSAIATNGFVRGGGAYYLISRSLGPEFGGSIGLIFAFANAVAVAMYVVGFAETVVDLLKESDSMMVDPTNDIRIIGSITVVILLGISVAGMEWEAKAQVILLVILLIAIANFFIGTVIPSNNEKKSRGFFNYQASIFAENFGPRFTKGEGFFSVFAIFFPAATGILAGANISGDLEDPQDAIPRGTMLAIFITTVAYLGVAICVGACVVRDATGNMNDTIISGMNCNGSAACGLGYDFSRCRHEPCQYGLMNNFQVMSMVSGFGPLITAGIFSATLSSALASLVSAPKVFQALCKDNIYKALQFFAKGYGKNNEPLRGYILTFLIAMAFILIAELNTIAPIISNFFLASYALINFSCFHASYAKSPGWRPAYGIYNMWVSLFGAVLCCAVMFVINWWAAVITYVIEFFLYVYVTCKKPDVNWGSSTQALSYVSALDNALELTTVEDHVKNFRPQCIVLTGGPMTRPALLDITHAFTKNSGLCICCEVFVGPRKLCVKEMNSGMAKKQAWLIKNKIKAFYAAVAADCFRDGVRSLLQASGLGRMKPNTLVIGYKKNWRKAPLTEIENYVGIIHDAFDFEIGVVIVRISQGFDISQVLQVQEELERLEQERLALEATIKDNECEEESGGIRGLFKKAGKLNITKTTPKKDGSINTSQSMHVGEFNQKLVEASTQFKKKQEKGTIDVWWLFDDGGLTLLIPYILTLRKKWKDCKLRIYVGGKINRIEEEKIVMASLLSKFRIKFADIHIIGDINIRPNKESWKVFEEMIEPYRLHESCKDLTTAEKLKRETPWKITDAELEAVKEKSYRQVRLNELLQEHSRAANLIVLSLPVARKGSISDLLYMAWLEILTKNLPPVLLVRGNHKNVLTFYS
- test.method.notes: Thallium-based assay in NKCC2-transfected HEK293 cells
- Type: cell-based
- details: 10 μM; NKCC2-transfected HEK293; Table 2
reported.metric: inhibition at 10 µM (%)
Give bare numbers, in %.

List the reported inhibition at 10 µM of each compound below.
1. CC(C)(C)CCNc1cc(Cl)c(C(=O)O)cc1S(N)(=O)=O
2. CCCCCCNc1ccc(C(=O)O)cc1S(=O)(=O)N(C)C
3. CN(C)S(=O)(=O)c1cc(C(=O)O)ccc1NCCCCCCCC(F)(F)F
4. CCCCCCCCNc1ccc([N+](=O)[O-])cc1S(=O)(=O)N(C)C
5. CNS(=O)(=O)c1cc(C(=O)O)ccc1NCCC(C)(C)C
6. CC(C)(C)CCNc1ccc(C(=O)O)cc1S(N)(=O)=O
7. CCCCCCNc1cc(Cl)c(C(=O)O)cc1S(N)(=O)=O
8. CCCCNc1ccc([N+](=O)[O-])cc1S(=O)(=O)N(C)C

stdout:
1. 0
2. 29
3. 0
4. 0
5. 12
6. 23
7. 14
8. 0

List the reported inhibition at 10 µM of each compound below.
1. CCCCNc1ccc([N+](=O)[O-])cc1S(N)(=O)=O
2. CNS(=O)(=O)c1cc([N+](=O)[O-])ccc1NCCC(C)(C)C
3. CCCCNc1ccc(C(=O)O)cc1S(=O)(=O)N(C)C
4. CN(C)S(=O)(=O)c1cc([N+](=O)[O-])ccc1NCCC(C)(C)C
5. CCCCCCCCNc1ccc(C(=O)O)cc1S(=O)(=O)N(C)C
6. CCCCCCNc1ccc(C(=O)O)cc1S(N)(=O)=O

stdout:
[4, 0, 0, 13, 0, 0]

Where do the numbers come from? From patent US20220184008A1.
